Consider the following molecules; for each one, report its Activity.
- TARGET_DESC: 5-hydroxytryptamine receptor 1A (Homo sapiens) (UniProt P08908)
- Sequence (P08908 whole entry): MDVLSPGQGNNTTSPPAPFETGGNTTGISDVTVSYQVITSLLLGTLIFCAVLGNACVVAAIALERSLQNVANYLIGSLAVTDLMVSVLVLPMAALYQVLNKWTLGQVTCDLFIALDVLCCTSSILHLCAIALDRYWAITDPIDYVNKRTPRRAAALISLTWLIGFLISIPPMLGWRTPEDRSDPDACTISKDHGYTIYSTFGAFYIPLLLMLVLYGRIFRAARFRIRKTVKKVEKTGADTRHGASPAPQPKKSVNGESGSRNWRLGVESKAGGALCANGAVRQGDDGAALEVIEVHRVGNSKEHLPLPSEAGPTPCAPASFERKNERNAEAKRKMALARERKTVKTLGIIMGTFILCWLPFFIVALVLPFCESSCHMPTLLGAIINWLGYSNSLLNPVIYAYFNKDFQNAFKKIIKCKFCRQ
- ASSAY_EXPLANATION: Displacement of [3H]-8-OH-DPAT from human cloned 5HT1A receptor at 100 nM
One number for each entry, in %.

O=[N+]([O-])c1ccc(-c2ccccc2N2CCNCC2)cc1 : 16
COc1cccc(OC)c1-c1ccccc1N1CCNCC1 : 21

Could I get Activity for every one of these entries?
1. Cc1ccc(-c2ccccc2N2CCNCC2)cc1C
2. c1ccc(-c2ccccc2N2CCNCC2)nc1
3. Fc1ccc(-c2ccccc2N2CCNCC2)cc1
4. Cc1ccc(-c2cccc(N3CCNCC3)c2)cc1C
5. COc1ccc(-c2cccc(N3CCNCC3)c2)cc1

A:
1: 22; 2: 23; 3: 15; 4: 34; 5: 42
